system: SF-268; assay: Cytotoxicity assay (cell titer-glo and calcein AM), SF-268; details: read-out: Cytotoxicity IC50, SF-268, CTG; SF-268; CTG (cell titer-glo) readout; % error in parentheses
Experimental readout: IC50 (nM)
Response body: numeric value in nM, unit text excluded.

>>> recorded_number("COc1cc2c(c(OC)c1OC)-c1ccc(OC)c(=O)cc1C(NC(=O)CN(OC)C1OCC(O)C(O)C1O)CC2 [Col17, L-xyloside]")
5930

# compound COc1cc2c(c(OC)c1OC)-c1ccc(OC)c(=O)cc1C(NC(=O)CN(OC)C1OCC(O)C(O)C1O)CC2 [Col20, D-arabinoside] ; its IC50 = 2540

# compound COc1cc2c(c(OC)c1OC)-c1ccc(OC)c(=O)cc1[C@@H](NC(=O)CN(OC)[C@@H]1O[C@H](CO)[C@@H](O)[C@H](O)[C@H]1F)CC2 [Col34, 2-fluoro-2-deoxy-D-glucoside] ; its IC50 = 281

# compound COc1cc2c(c(OC)c1OC)-c1ccc(OC)c(=O)cc1[C@@H](NC(=O)CN(OC)[C@@H]1O[C@H](C)[C@@H](O)[C@H](O)[C@H]1O)CC2 [Col2, 6-deoxy-D-glucoside] ; its IC50 = 8430

# compound COc1cc2c(c(OC)c1OC)-c1ccc(OC)c(=O)cc1[C@@H](NC(=O)CN(OC)[C@H]1C[C@@H](O)[C@H](O)[C@@H](CO)O1)CC2 [Col16, 2-deoxy-D-glucoside] ; its IC50 = 1070

----------
Measured IC50 accompanies every entry in the list below.
tested on: SK-OV-3; test: Cytotoxicity assay (cell titer-glo and calcein AM), SK-OV-3; conditions: read-out: Cytotoxicity IC50, SK-OV-3, CTG; SK-OV-3; CTG (cell titer-glo) readout; % error in parentheses

# compound COc1cc2c(c(OC)c1OC)-c1ccc(OC)c(=O)cc1[C@@H](NC(=O)CN(OC)[C@@H]1O[C@H](C)[C@@H](O)[C@H](O)[C@H]1O)CC2 [Col2, 6-deoxy-D-glucoside] ; its IC50 = 9.86 µM

# compound COc1cc2c(c(OC)c1OC)-c1ccc(OC)c(=O)cc1[C@@H](NC(=O)CN(OC)[C@@H]1O[C@H](C(=O)O)[C@@H](O)[C@H](O)[C@H]1O)CC2 [Col15, D-glucuronoside] ; its IC50 = 1.07 µM

# compound COc1cc2c(c(OC)c1OC)-c1ccc(OC)c(=O)cc1[C@@H](NC(=O)CN(OC)[C@@H]1O[C@H](C)[C@H](O)[C@H](O)[C@H]1O)CC2 [Col9, D-fucoside] ; its IC50 = > 10 µM

----------
tested on: mouse mammary normal epithelial control cell line; test: Cytotoxicity assay, normal control cell line; conditions: read-out: Cytotoxicity IC50, NmuMG, CTG, CTG (cell titer-glo) readout, % error in parentheses
pIC50: −log10 of the molar value.
Experimental readout: pIC50

Record excerpt, results attached:
>>> result("COc1cc2c(c(OC)c1OC)-c1ccc(OC)c(=O)cc1C(NC(=O)CN(OC)C1OCC(O)C(O)C1O)CC2 [Col22, L-riboside]")
"< 5.00"
>>> result("COc1cc2c(c(OC)c1OC)-c1ccc(OC)c(=O)cc1[C@@H](NC(=O)CN(OC)[C@@H]1O[C@H](CO)[C@@H](O)C[C@H]1O)CC2 [Col3, 3-deoxy-D-glucoside]")
"< 5.00"

# compound COc1cc2c(c(OC)c1OC)-c1ccc(OC)c(=O)cc1[C@@H](NC(=O)CN(OC)[C@@H]1O[C@H](CBr)[C@H](O)[C@H](O)[C@H]1O)CC2 [Col42, 6-deoxy-6-bromo-D-galactoside] ; its pIC50 = 5.55
